- Test system: NCI-H460 lung
- testSummary: NCI tumour cell line growth inhibition, 48 h
measuredMetric: TGI

q: State the recorded TGI for this entry: `N#CC(C#N)=c1c2nsnc2c(=C(C#N)C#N)c2nsnc12`
a: 3.86 µM

q: State the recorded TGI for this entry: O=c1[nH]c2cc([N+](=O)[O-])ccc2nc1/C(=N\Nc1ccccc1)C(O)c1ccc2c(c1)OCO2 (stereo unspecified)
a: > 100 µM

q: State the recorded TGI for this entry: O=C(CC(C(=O)c1ccco1)c1ccco1)c1ccco1 (stereo unspecified)
a: > 100 µM

q: State the recorded TGI for this entry: CCCCCCCCCCCC1CC(=O)NCCCN(C)CCCCN(C)CCCN1C (stereo unspecified)
a: 2.66 µM

q: State the recorded TGI for this entry: CC(=O)[CH-]C(=O)c1ccccc1.CC(=O)[CH-]C(=O)c1ccccc1.CC1(C)OCC(C2OC3OC(C)(C)OC3C2[O-])O1.CC[O-].[Ti+4] (stereo unspecified)
a: 24.8 µM

q: State the recorded TGI for this entry: CCOC(=O)C1=CC(C)(C(=O)OCC)Nc2c(nc(N)[nH]c2=O)N1 (stereo unspecified)
a: > 10 µM

q: State the recorded TGI for this entry: `C/C(=N\Nc1nc2ccccc2s1)c1ccc2ccccc2n1`
a: > 100 µM

q: State the recorded TGI for this entry: N#C/C(=C1\SC(N=Nc2ccc(Cl)cc2)C(=O)N1c1ccccc1)c1nc2ccccc2[nH]1 (stereo unspecified)
a: > 100 µM

q: State the recorded TGI for this entry: `C/C1=C\CC[C@@](C)(O)[C@@H]2C[C@H](CC/C(C)=C/CC1)C1(CC1)C(=O)O2`
a: > 100 µM

q: State the recorded TGI for this entry: `C/C(=C\CO)CC/C=C(\C)CNc1ccc([N+](=O)[O-])cc1`
a: > 100 µM

q: State the recorded TGI for this entry: `COc1ccc([C@H]2C=[N+]([O-])O[C@H](OC3CCCC3)[C@@H]2OC(C)=O)cc1OC`
a: > 100 µM

q: State the recorded TGI for this entry: CSc1nc2c(ncn2C2OC(CO)C(O)C(O)C2O)c(=O)[nH]1 (stereo unspecified)
a: > 100 µM

q: State the recorded TGI for this entry: c1ccc2[nH]c(CNc3ccc(C4C[Se]N=N4)cc3)nc2c1 (stereo unspecified)
a: > 100 µM

q: State the recorded TGI for this entry: Nc1ccccc1C(=O)C(Br)C(Br)c1ccc2c(c1)OCO2 (stereo unspecified)
a: 39.2 µM

q: State the recorded TGI for this entry: CCOC(=O)C1(Cc2ccc3ccccc3c2)CCCCC(=O)N1 (stereo unspecified)
a: > 100 µM

q: State the recorded TGI for this entry: `CCOC(=O)c1sc2ncnc(N)c2c1C`
a: > 100 µM

q: State the recorded TGI for this entry: `O=C(/C=C/c1cccc(O)c1)c1cccc(-n2cc(-c3ccc4ccccc4c3)[nH]c2=O)c1`
a: 3.19 µM

q: State the recorded TGI for this entry: CCOP(=O)(OCC)OC1CC(n2cc(C)c(=O)n(C)c2=O)OC1CO[Si](C)(C)C(C)(C)C (stereo unspecified)
a: > 100 µM

q: State the recorded TGI for this entry: CC1c2ccccc2N=C2SC(=S)N3CCN=C3N21 (stereo unspecified)
a: > 100 µM

q: State the recorded TGI for this entry: Cc1ccc(C)c(N2C(=O)C(=O)C(c3nc4ccccc4s3)C(=Nc3cccc4c(=O)[nH][nH]c(=O)c34)C2=O)c1 (stereo unspecified)
a: > 100 µM

q: State the recorded TGI for this entry: `COC(=O)c1ccc2c(c1)C(=O)c1c-2n(CCCN=[N+]=[N-])c(=O)c2cc([N+](=O)[O-])ccc12`
a: > 100 µM

q: State the recorded TGI for this entry: `OCc1ccc(N2CCOCC2)cc1Cl`
a: > 100 µM

q: State the recorded TGI for this entry: `Clc1nncc2sc(-c3ccccc3)nc12`
a: > 57.7 µM

q: State the recorded TGI for this entry: O=C1OC(c2ccccc2)N(C(=O)c2ccccc2)C1Cc1ccc(OCc2ccccc2)cc1 (stereo unspecified)
a: > 100 µM

q: State the recorded TGI for this entry: `O=C1c2cccc3cccc(c23)C(=O)N1O`
a: > 100 µM

q: State the recorded TGI for this entry: COc1cc(C(O)c2ccc3c(c2)OCO3)cc(OC)c1OC (stereo unspecified)
a: > 100 µM

q: State the recorded TGI for this entry: `COc1ccc(OC)c2sc(N3C(=O)/C(=C/c4cccc([N+](=O)[O-])c4)N=C3c3ccccc3)nc12`
a: > 100 µM

q: State the recorded TGI for this entry: `C[C@H]1OC(=O)[C@@H]2N=NN(Cc3ccccc3)[C@H]12`
a: > 100 µM

q: State the recorded TGI for this entry: CC(C)(C)c1ccc(OC2CCO2)cc1 (stereo unspecified)
a: 53.3 µM

q: State the recorded TGI for this entry: `[2H]c1nc(=Nc2cc(NC(=O)C=C)c(N(C)CCN(C)C)cc2OC)[nH]c(-c2cn(C([2H])([2H])[2H])c3ccccc23)c1[2H]`
a: 4.37 µM

q: State the recorded TGI for this entry: `Nc1ccc(-c2nn3c(COc4ccc(Cl)cc4)nnc3s2)cc1`
a: > 100 µM

q: State the recorded TGI for this entry: c1ccc(C2CC(=NC3CCCCC3)Nc3ccccc3N2)cc1 (stereo unspecified)
a: > 100 µM

q: State the recorded TGI for this entry: `COc1ccc(-n2nc(C)c3c(Nc4ccc(NC(=O)Nc5ccc(Cl)c(C(F)(F)F)c5)cc4)ncnc32)cc1`
a: 5.07 µM

q: State the recorded TGI for this entry: `CC(C)Oc1ccc(C(=O)Cn2ccnc2)cc1-n1c(CN2CCN(C(=O)COc3ccc(Cl)cc3)CC2)nc2ccccc2c1=O`
a: 33.7 µM

q: State the recorded TGI for this entry: COc1ccc(NC(C)c2ccncc2)cc1 (stereo unspecified)
a: > 100 µM

q: State the recorded TGI for this entry: COC(=O)N1N=C(c2ccccc2)C1c1ccccc1 (stereo unspecified)
a: > 100 µM

q: State the recorded TGI for this entry: `O=S1(=O)C[C@@H](NCc2ccccc2)[C@H](NCc2ccccc2)C1`
a: > 100 µM

q: State the recorded TGI for this entry: O=C(CC1(O)C(=O)Nc2c(Cl)ccc(Cl)c21)c1ccc(Cl)cc1Cl (stereo unspecified)
a: 38.3 µM

q: State the recorded TGI for this entry: `Cc1cc(C)nc(NS(=O)(=O)c2ccc(NC(=O)c3cccc4c(NNc5ccc(S(=O)(=O)N=C(N)N)cc5)c5ccccc5nc34)cc2)n1`
a: > 50 µM

q: State the recorded TGI for this entry: `CCOC(=O)N1CCN(CCCCCOc2ccccc2C2CCCCC2)CC1`
a: 17.7 µM

q: State the recorded TGI for this entry: COc1ccc(N2C(=O)C3c4[nH]c5ccccc5c4C4CCCCCCCCCC4C3C2=O)cc1 (stereo unspecified)
a: > 10 µM
